TESTED ON: protein kinase B (PKB)
MEASUREMENT DESCRIPTION: cell-based or functional assay
Square brackets hold non-standard residues; d marks the D form. * marks the point of attachment. Cholesteryloxycarbonyl = CC(C)CCC[C@@H](C)[C@H]1CC[C@H]2[C@@H]3CC=C4C[C@@H](OC(=O)*)CC[C@]4(C)[C@H]3CC[C@]12C; Myristoyl = CCCCCCCCCCCCCC(=O)*; hLeu = CC(C)CC[C@H](N)C(=O)O; Nva = CCC[C@H](N)C(=O)O; Dap = NC[C@H](N)C(=O)O
QUANTITY: IC50, kinase assay PKB
Reply with a number, then the unit it belongs to.

Answered examples (2):
| BINDER | OBS VALUE |
| --- | --- |
| {Vitamin E succinate}-RPR[Nva]Y[Dap][hLeu]-NH2 [PTR 6244] | 3 µM |
| Myristoyl-GRPR[Nva]Y[Dap][hLeu]-NH2 (SMILES CCCCCCCCCCCCCC(=O)NCC(=O)N[C@@H](CCCNC(=N)N)C(=O)N1CCC[C@H]1C(=O)N[C@@H](CCCNC(=N)N)C(=O)N[C@@H](CCC)C(=O)N[C@@H](Cc1ccc(O)cc1)C(=O)N[C@@H](CN)C(=O)N[C@@H](CCC(C)C)C(N)=O) [PTR 6180] | 0.9 µM |

Below: the item to evaluate.
Notebook: Cholesteryloxycarbonyl-RPR[Nva]YA[hLeu]-NH2 (SMILES CCC[C@H](NC(=O)[C@H](CCCNC(=N)N)NC(=O)[C@@H]1CCCN1C(=O)[C@H](CCCNC(=N)N)NC(=O)O[C@H]1CC[C@@]2(C)C(=CC[C@H]3[C@@H]4CC[C@H]([C@H](C)CCCC(C)C)[C@@]4(C)CC[C@@H]32)C1)C(=O)N[C@@H](Cc1ccc(O)cc1)C(=O)N[C@@H](C)C(=O)N[C@@H](CCC(C)C)C(N)=O) [PTR 6196] , IC50, kinase assay PKB read as 0.5 µM

The origin of these recorded values is patent US20070078092A1.
